Item-by-item account of Mean [Parent] (nM) at 2 hrs, 37° C.
- MEASUREMENT_DESCRIPTION: Stability of steroid C-21 esters, carbonates and carbamates in rat lung homogenate
- CONDITION_DETAILS: Inactive homogenate; parent compound
Dear colleague, please return just the value in nM, with no unit written.

Below, each entry is followed by its recorded Mean [Parent] (nM) at 2 hrs, 37° C. result.
CN1CCC[C@H]1C(=O)OCC(=O)[C@@]12O[C@H](C3CCCCC3)O[C@@H]1C[C@H]1[C@@H]3CCC4=CC(=O)C=C[C@]4(C)[C@H]3[C@@H](O)C[C@@]12C ... 71
C[C@]12C=CC(=O)C=C1CC[C@@H]1[C@@H]2[C@@H](O)C[C@@]2(C)[C@H]1C[C@H]1O[C@@H](C3CCCCC3)O[C@]12C(=O)COC(=O)/C=C/c1cccnc1 ... 124

Below: the item to evaluate.
query: Could you share which Mean [Parent] (nM) at 2 hrs, 37° C. value was measured for CN1CCN(C(=O)OCC(=O)[C@@]23O[C@H](C4CCCCC4)O[C@@H]2C[C@H]2[C@@H]4CCC5=CC(=O)C=C[C@]5(C)[C@H]4[C@@H](O)C[C@@]23C)CC1 ?
result: 172

* * *

- MEASUREMENT_DESCRIPTION: Stability of steroid C-21 esters, carbonates and carbamates in rat lung homogenate
- CONDITION_DETAILS: Inactive homogenate; parent compound
Hi, to clarify the labels: Condition met covers Mean [Parent] (nM) at 2 hrs, 37° C. from 90 nM upward, Condition not met covers anything below 90 nM.

Known results for molecules:
CC(C)[C@@H](N)C(=O)OCC(=O)[C@@]12O[C@H](C3CCCCC3)O[C@@H]1C[C@H]1[C@@H]3CCC4=CC(=O)C=C[C@]4(C)[C@H]3[C@@H](O)C[C@@]12C ... Condition not met
C[C@]12C=CC(=O)C=C1CC[C@@H]1[C@@H]2[C@@H](O)C[C@@]2(C)[C@H]1C[C@H]1O[C@@H](C3CCCCC3)O[C@]12C(=O)CO [des-ciclesonide, desisobutyryl ciclesonide, reference compound] ... Condition not met
CN(C)CCN(C)C(=O)OCC(=O)[C@@]12O[C@H](C3CCCCC3)O[C@@H]1C[C@H]1[C@@H]3CCC4=CC(=O)C=C[C@]4(C)[C@H]3[C@@H](O)C[C@@]12C ... Condition met

With those in mind, consider the next molecule.
query: Hello, I need to know if CCN(CC)Cc1cccc(C(=O)OCC(=O)[C@@]23O[C@H](C4CCCCC4)O[C@@H]2C[C@H]2[C@@H]4CCC5=CC(=O)C=C[C@]5(C)[C@H]4[C@@H](O)C[C@@]23C)c1 has measured Mean [Parent] (nM) at 2 hrs, 37° C. not below 90 nM. Thanks!
result: Condition met

* * *

- MEASUREMENT_DESCRIPTION: Stability of steroid C-21 esters, carbonates and carbamates in rat lung homogenate
- CONDITION_DETAILS: Inactive homogenate; parent compound
Item-by-item account of Mean [Parent] (nM) at 2 hrs, 37° C.
Dear colleague, please return just the value in nM, with no unit written.

Below, each entry is followed by its recorded Mean [Parent] (nM) at 2 hrs, 37° C. result.
CN(C)CC(=O)OCC(=O)[C@@]12O[C@H](C3CCCCC3)O[C@@H]1C[C@H]1[C@@H]3CCC4=CC(=O)C=C[C@]4(C)[C@H]3[C@@H](O)C[C@@]12C ... 101
CCN(CC)Cc1ccc(C(=O)OCC(=O)[C@@]23O[C@H](C4CCCCC4)O[C@@H]2C[C@H]2[C@@H]4CCC5=CC(=O)C=C[C@]5(C)[C@H]4[C@@H](O)C[C@@]23C)cc1 ... 109
C[C@]12C=CC(=O)C=C1CC[C@@H]1[C@@H]2[C@@H](O)C[C@@]2(C)[C@H]1C[C@H]1O[C@@H](C3CCCCC3)O[C@]12C(=O)COC(=O)Cc1cccnc1 ... 142
CC(C)[C@@H](NC(=O)c1cccnc1)C(=O)OCC(=O)[C@@]12O[C@H](C3CCCCC3)O[C@@H]1C[C@H]1[C@@H]3CCC4=CC(=O)C=C[C@]4(C)[C@H]3[C@@H](O)C[C@@]12C ... 169

query: Could you share which Mean [Parent] (nM) at 2 hrs, 37° C. value was measured for CN(C)CCNC(=O)OCC(=O)[C@@]12O[C@H](C3CCCCC3)O[C@@H]1C[C@H]1[C@@H]3CCC4=CC(=O)C=C[C@]4(C)[C@H]3[C@@H](O)C[C@@]12C ?
result: 162

* * *

- MEASUREMENT_DESCRIPTION: Stability of steroid C-21 esters, carbonates and carbamates in rat lung homogenate
- CONDITION_DETAILS: Inactive (heat-inactivated) rat lung homogenate; 900 nM; n=3
Each record is given rule met if its reported Mean % compound remaining at 2 hrs, 37° C. is strictly below 80%. Records at or above 80% are given rule not met.

C[C@]12C=CC(=O)C=C1CC[C@@H]1[C@@H]2[C@@H](O)C[C@@]2(C)[C@H]1C[C@H]1O[C@@H](C3CCCCC3)O[C@]12C(=O)COC(=O)Cc1cccnc1 [Example 76] ... rule not met
CC(C)C(=O)OCC(=O)[C@@]12O[C@H](C3CCCCC3)O[C@@H]1C[C@H]1[C@@H]3CCC4=CC(=O)C=C[C@]4(C)[C@H]3[C@@H](O)C[C@@]12C [Ciclesonide, ciclesonide] ... rule not met
CC(C)[C@@H](N)C(=O)OCC(=O)[C@@]12O[C@H](C3CCCCC3)O[C@@H]1C[C@H]1[C@@H]3CCC4=CC(=O)C=C[C@]4(C)[C@H]3[C@@H](O)C[C@@]12C [Example 50] ... rule met

With those in mind, consider the next compound.
query: Dear colleague, could you confirm whether Mean % compound remaining at 2 hrs, 37° C. of C[C@]12C=CC(=O)C=C1CC[C@@H]1[C@@H]2[C@@H](O)C[C@@]2(C)[C@H]1C[C@H]1O[C@@H](C3CCCCC3)O[C@]12C(=O)COC(=O)CCc1cccnc1 [Example 34] falls below 80%? Thanks.
result: rule met

* * *

- MEASUREMENT_DESCRIPTION: Stability of steroid C-21 esters, carbonates and carbamates in rat lung homogenate
- CONDITION_DETAILS: Active homogenate; parent compound
Item-by-item account of Mean [Parent] (nM) at 2 hrs, 37° C.
Dear colleague, please return just the value in nM, with no unit written.

C[C@]12C=CC(=O)C=C1CC[C@@H]1[C@@H]2[C@@H](O)C[C@@]2(C)[C@H]1C[C@H]1O[C@@H](C3CCCCC3)O[C@]12C(=O)COC(=O)c1cccnc1 ... 2
CC(C)C(=O)OCC(=O)[C@@]12O[C@H](C3CCCCC3)O[C@@H]1C[C@H]1[C@@H]3CCC4=CC(=O)C=C[C@]4(C)[C@H]3[C@@H](O)C[C@@]12C [Ciclesonide, ciclesonide] ... 18
CN(C)CCNC(=O)OCC(=O)[C@@]12O[C@H](C3CCCCC3)O[C@@H]1C[C@H]1[C@@H]3CCC4=CC(=O)C=C[C@]4(C)[C@H]3[C@@H](O)C[C@@]12C ... 186

query: Could you share which Mean [Parent] (nM) at 2 hrs, 37° C. value was measured for C[C@]12C=CC(=O)C=C1CC[C@@H]1[C@@H]2[C@@H](O)C[C@@]2(C)[C@H]1C[C@H]1O[C@@H](C3CCCCC3)O[C@]12C(=O)COC(=O)Cc1cccnc1 ?
result: 4

query: Could you share which Mean [Parent] (nM) at 2 hrs, 37° C. value was measured for CCN(CC)CC(=O)OCC(=O)[C@@]12O[C@H](C3CCCCC3)O[C@@H]1C[C@H]1[C@@H]3CCC4=CC(=O)C=C[C@]4(C)[C@H]3[C@@H](O)C[C@@]12C ?
result: 1

query: Could you share which Mean [Parent] (nM) at 2 hrs, 37° C. value was measured for CCN(CC)Cc1cccc(C(=O)OCC(=O)[C@@]23O[C@H](C4CCCCC4)O[C@@H]2C[C@H]2[C@@H]4CCC5=CC(=O)C=C[C@]5(C)[C@H]4[C@@H](O)C[C@@]23C)c1 ?
result: 127

query: Could you share which Mean [Parent] (nM) at 2 hrs, 37° C. value was measured for CCN(CC)Cc1ccc(C(=O)OCC(=O)[C@@]23O[C@H](C4CCCCC4)O[C@@H]2C[C@H]2[C@@H]4CCC5=CC(=O)C=C[C@]5(C)[C@H]4[C@@H](O)C[C@@]23C)cc1 ?
result: 102

query: Could you share which Mean [Parent] (nM) at 2 hrs, 37° C. value was measured for CN(C)CC(=O)OCC(=O)[C@@]12O[C@H](C3CCCCC3)O[C@@H]1C[C@H]1[C@@H]3CCC4=CC(=O)C=C[C@]4(C)[C@H]3[C@@H](O)C[C@@]12C ?
result: 1

query: Could you share which Mean [Parent] (nM) at 2 hrs, 37° C. value was measured for CC(C)[C@@H](N)C(=O)OCC(=O)[C@@]12O[C@H](C3CCCCC3)O[C@@H]1C[C@H]1[C@@H]3CCC4=CC(=O)C=C[C@]4(C)[C@H]3[C@@H](O)C[C@@]12C ?
result: 219
